- Measurement Protocol: yeast growth modulation, basal conditions, primary screen, YJM789 clinical isolate, OD600, 24 h (AID 1089);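 note: growth of clinical yeast isolate S. cerevisiae YJM 789 seeded 1000 cells per well; test concentration not given here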
- Experimental Parameters: S. cerevisiae YJM789 growth, higher = more signal, called active from +8 up or from −8 down
Label not met if z-score falls below -0.1; label met in every other case.

Reported z-score at or above -0.1? "NC(=O)NCC#Cc1ccc2c(c1)[C@]1(C(=O)N2)[C@H](C(=O)NC[C@H](O)c2ccccc2)[C@H]2C(=O)O[C@H](c3ccccc3)[C@H](c3ccccc3)N2[C@@H]1c1ccc(OCCO)cc1" met

Is the recorded value of z-score equal to or greater than -0.1 for this compound? COC(=O)C1=CC(CCCO)=CC(C2CC2)N(C)C=C1C(=O)OC (stereo unspecified) not met

Check the entry "COC(=O)c1nc2oc1CC[C@@H](CO)NC(=O)N(C)Cc1cnnn1C[C@H](Cc1ccccc1)NC2=O" : does z-score equal or exceed -0.1? not met

Form field: z-score at least -0.1? Entry: "C=CCOC(=O)[C@H]1[C@@H]2C(=O)O[C@@H](c3ccccc3)[C@@H](c3ccccc3)N2[C@@H](c2ccc(OCCOC(=O)[C@H]3C[C@H]4C(=O)N[C@@H](CC(C)C)C(=O)N4[C@H]3c3cccc(OCCO)c3)cc2)[C@]12C(=O)Nc1ccc(I)cc12" met

Check this compound for z-score at or above -0.1: "O=C1O[C@H](c2ccccc2)[C@H](c2ccccc2)N2[C@H]1[C@@H](C(=O)Nc1nc3ccccc3s1)[C@]1(C(=O)Nc3ccc(C#CC4(O)CCCCCC4)cc31)[C@H]2c1ccccc1OCCO" met
